Tested on: Yap1 mRNA
procedureText: Dose-dependent inhibition of human Yap1 in A-431 cells (Example 8, 10,000 cells per well, RTS4814)
Format: cell-based
conditionParameters: 125.0 nM; A-431 cells, 10,000 cells per well, free uptake, approximately 48 hours, RTS4814
Strand notation (5' to 3'): a small letter for the sugar, then the base; units joined by * are phosphorothioate-linked, units joined directly phosphodiester-linked; [ ] holds rarer units or linkages, { } end groups; capitals alone tell only the bases. k = constrained ethyl (cEt); [5mC] = 5-methylcytosine; d = 2'-deoxy (DNA)
measuredEndpoint: Yap1 mRNA, % UTC (% UTC)
Give just the number in % UTC; leave the unit off.

# input Return reported Yap1 mRNA, % UTC; argument: 1074222 (antisense kA*kG*kG*dA*dA*dT*dG*dA*dG*d[5mC]*dT*d[5mC]*dG*kA*kA*k[5mC]) [compound 1074222]
# output 21

# input Now consider 1074737 (kT*kT*k[5mC]*dA*dG*dG*dT*d[5mC]*dA*dG*dT*dA*d[5mC]*kA*kG*kA; antisense) [compound 1074737] .
# output 21

# input Follow-up entry: 1076458 (k[5mC]*kT*kT*dA*dA*dT*dT*dA*dG*d[5mC]*d[5mC]*dT*d[5mC]*kA*kG*kT; antisense) [compound 1076458]
# output 52

# input Same again, this time with 1076427 (k[5mC]*kA*kA*dA*dT*dT*dT*dA*d[5mC]*dT*dG*dA*dT*k[5mC]*kT*k[5mC]; antisense) [compound 1076427]
# output 30

# input Input 1074597 (DNA kA*kG*kT*dA*dT*dT*d[5mC]*dT*dA*dT*d[5mC]*d[5mC]*dA*kG*kG*kG; antisense) [compound 1074597]
# output 15
